Consider the following log10(IC50) values measured on hAT2 (Homo sapiens, UniProt P50052).
Sequence (P50052 whole entry): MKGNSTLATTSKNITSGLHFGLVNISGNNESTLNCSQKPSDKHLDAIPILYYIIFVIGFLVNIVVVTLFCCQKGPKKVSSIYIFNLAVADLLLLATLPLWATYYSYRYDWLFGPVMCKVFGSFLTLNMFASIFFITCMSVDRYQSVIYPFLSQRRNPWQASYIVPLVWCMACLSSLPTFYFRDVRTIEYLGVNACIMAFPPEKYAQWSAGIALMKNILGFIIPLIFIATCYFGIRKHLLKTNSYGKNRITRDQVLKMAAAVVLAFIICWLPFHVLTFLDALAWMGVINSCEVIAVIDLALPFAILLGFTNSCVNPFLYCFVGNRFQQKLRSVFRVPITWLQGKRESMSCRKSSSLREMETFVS
Response schema: value (number) is log10 of IC50 in units of nM.

INSERT INTO results (molecule, reading) VALUES
  ('COc1ccc2c(c1OCc1ccccc1)C[C@@H](C(=O)O)N(C(=O)[C@H](OC1CC3CC3C1)c1ccccc1)C2 (some centres unmarked)', 2.35);

Ask: Write down the reported log10(IC50) of `COc1ccc2c(c1OCc1ccccc1)C[C@@H](C(=O)O)N(C(=O)[C@H](OC1CCCC1)c1ccccc1)C2` , test system: hAT2 (Homo sapiens, UniProt P50052).
Result: 2.84

Ask: Write down the reported log10(IC50) of `COc1ccc2c(c1OCc1ccccc1)C[C@@H](C(=O)O)N(C(=O)[C@@H](OC(C)(C)C)c1ccccc1)C2` , test system: hAT2 (Homo sapiens, UniProt P50052).
Result: 1.27

Ask: Write down the reported log10(IC50) of COc1ccc2c(c1OCc1ccccc1)C[C@@H](C(=O)O)N(C(=O)[C@H](O[C@@H]1CCOC1)c1ccccc1)C2 (single isomer, unassigned) , test system: hAT2 (Homo sapiens, UniProt P50052).
Result: 1.78

Ask: Write down the reported log10(IC50) of `CC1(O[C@@H](C(=O)N2Cc3ccc(Cl)c(OCc4ccccc4)c3C[C@H]2C(=O)O)c2ccccc2)CCCC1` , test system: hAT2 (Homo sapiens, UniProt P50052).
Result: 1.86

Ask: Write down the reported log10(IC50) of `COc1ccc2c(c1OCc1ccccc1)C[C@@H](C(=O)O)N(C(=O)[C@@H](Oc1c(F)cc(F)cc1F)c1ccccc1)C2` , test system: hAT2 (Homo sapiens, UniProt P50052).
Result: 1.98

Ask: Write down the reported log10(IC50) of COc1ccc2c(c1OCc1ccccc1)C[C@@H](C(=O)O)N(C(=O)[C@H](OC1CCC3CC31)c1ccccc1)C2 (single isomer, unassigned) , test system: hAT2 (Homo sapiens, UniProt P50052).
Result: 2.43

Ask: Write down the reported log10(IC50) of `COc1ccc2c(c1OCc1ccccc1)C[C@@H](C(=O)O)N(C(=O)[C@H](Oc1ccc3ccccc3c1)c1ccccc1)C2` , test system: hAT2 (Homo sapiens, UniProt P50052).
Result: 1.99

Ask: Write down the reported log10(IC50) of `COc1ccc2c(c1OCc1ccccc1)C[C@@H](C(=O)O)N(C(=O)[C@@H](Oc1ccccc1)c1ccccc1)C2` , test system: hAT2 (Homo sapiens, UniProt P50052).
Result: 2.40

###

Consider the following pIC50 values measured on hAT2 (Homo sapiens).
Convention used: pIC50 is expressed as -log10 of the molar concentration.

Answered cases to consult:
INSERT INTO assay_data (compound, target_system, reading) VALUES
  ('Cc1ccc2c(c1OCc1ccccc1)C[C@@H](C(=O)O)N(C(=O)[C@H](O[C@H]1CC[C@@H](O)CC1)c1ccccc1)C2 [Compound 72]', 'hAT2 (Homo sapiens)', 8.28),
  ('COc1ccc2c(c1OCc1ccccc1)C[C@@H](C(=O)O)N(C(=O)[C@H](Oc1ccc(C#N)cc1)c1ccccc1)C2 [Compound 30]', 'hAT2 (Homo sapiens)', 6.43),
  ('N#Cc1ccc2c(c1OCc1ccccc1)C[C@H](C(=O)O)N(C(=O)[C@H](OC1CCCC1)c1ccccc1)C2 [Compound 112]', 'hAT2 (Homo sapiens)', 6.93),
  ('COc1ccc2c(c1OCc1ccccc1)C[C@@H](C(=O)O)N(C(=O)[C@@H](Oc1ccc(Cl)cc1)c1ccccc1)C2 [Compound 33]', 'hAT2 (Homo sapiens)', 6.19),
  ('O=C(O)[C@@H]1Cc2c(cccc2OCc2ccccc2)CN1C(=O)[C@H](O[C@H]1CC[C@@H](O)CC1)c1ccccc1 [Compound 82]', 'hAT2 (Homo sapiens)', 7.68);

Ask: Please look up its pIC50: COc1ccc2c(c1OCc1ccccc1)C[C@@H](C(=O)O)N(C(=O)[C@H](OCC(F)(F)F)c1ccccc1)C2 [Compound 8]
Result: 6.29

Ask: Please look up its pIC50: COc1ccc2c(c1OCc1cccs1)C[C@@H](C(=O)O)N(C(=O)[C@@H](OC1CCCC1)c1ccccc1)C2 [Compound 117]
Result: 8.04

Ask: Please look up its pIC50: COc1ccc2c(c1OCc1ccccc1)C[C@@H](C(=O)O)N(C(=O)[C@@H](OC1COC1)c1ccccc1)C2 [Compound 13]
Result: 6.81

Ask: Please look up its pIC50: COc1ccc2c(c1OCc1ccccc1)C[C@@H](C(=O)O)N(C(=O)C(OC1CCCC1)c1ccccc1)C2 (some centres unmarked) [Compound 47]
Result: 7.77

Ask: Please look up its pIC50: COc1ccc2c(c1OCc1ccccc1)C[C@@H](C(=O)O)N(C(=O)[C@@H](OC1CCCC1)c1ccc(F)cc1)C2 [Compound 53]
Result: 7.08

Ask: Please look up its pIC50: O=C(O)[C@@H]1Cc2c(ccc(Cl)c2OCc2ccccc2)CN1C(=O)[C@H](OC1CC(F)(F)C1)c1ccccc1 [Compound 74]
Result: 6.89

Ask: Please look up its pIC50: COc1ccc2c(c1OCc1ccccc1)C[C@@H](C(=O)O)N(C(=O)[C@@H](Oc1ccccc1F)c1ccccc1)C2 [Compound 17]
Result: 6.84
